# sPAP HepG2 B6 assay: Expt 2 EC50 listing for each entry below
Target: T1, gp130 on HepG2 B6 cells (UniProt P40189 23-918, limits assumed)
T1 sequence (looked up): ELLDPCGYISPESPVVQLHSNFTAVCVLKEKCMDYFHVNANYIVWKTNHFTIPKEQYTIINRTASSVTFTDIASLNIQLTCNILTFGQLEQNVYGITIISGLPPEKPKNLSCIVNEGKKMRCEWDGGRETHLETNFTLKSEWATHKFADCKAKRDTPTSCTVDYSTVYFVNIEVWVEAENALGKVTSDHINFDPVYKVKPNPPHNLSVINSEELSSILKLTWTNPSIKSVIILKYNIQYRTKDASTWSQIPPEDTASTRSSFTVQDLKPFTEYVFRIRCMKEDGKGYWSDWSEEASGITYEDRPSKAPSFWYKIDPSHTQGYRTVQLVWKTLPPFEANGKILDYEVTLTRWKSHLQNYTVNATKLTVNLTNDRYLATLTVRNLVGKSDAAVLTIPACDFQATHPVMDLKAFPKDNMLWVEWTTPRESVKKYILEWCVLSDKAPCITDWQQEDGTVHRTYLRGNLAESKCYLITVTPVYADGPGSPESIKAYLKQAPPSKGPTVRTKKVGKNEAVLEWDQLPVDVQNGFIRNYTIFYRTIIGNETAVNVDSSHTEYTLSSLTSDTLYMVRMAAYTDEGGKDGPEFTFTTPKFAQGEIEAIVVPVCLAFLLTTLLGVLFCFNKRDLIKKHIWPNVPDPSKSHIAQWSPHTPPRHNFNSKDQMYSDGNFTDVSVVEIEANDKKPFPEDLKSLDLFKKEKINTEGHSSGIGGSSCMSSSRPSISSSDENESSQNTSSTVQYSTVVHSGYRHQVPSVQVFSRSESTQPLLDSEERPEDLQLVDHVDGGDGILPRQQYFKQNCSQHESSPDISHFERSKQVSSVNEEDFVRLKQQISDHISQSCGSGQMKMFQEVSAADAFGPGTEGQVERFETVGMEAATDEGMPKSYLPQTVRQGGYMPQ
Experiment: cell-based or functional assay
Provide only the numeric value, understood in mg/L.

Some binders with known sPAP HepG2 B6 assay: Expt 2 EC50 results, for comparison:
Field sPAP HepG2 B6 assay: Expt 2 EC50 (entry OSM-GST mutant Q130A (ligand, not shown: a dimerising Fc or GST; large carriers; small tags and cut ends, Alanine mutant of m4; also called (25)Y130A; 25 Q130A) AAIGSCSKEYRVLLGQLQKQTDLMQDTSRLLDPYIRIQGLDVPKLREHCRERPGAFPSEETLRGLGRRGFLQTLNATLGCVLHRLADLEQRLPKAQDLERSGLNIEDLEKLQMARPNILGLRNNIYCMAALLDNSDTAEPTKAGRGASQPPTPTPASDAFQRKLEGCRFLHGYHRFMHSVGRVFSKWGESPNRSRR ) reads 0.0082

Field sPAP HepG2 B6 assay: Expt 2 EC50 (entry OSM-GST mutant R122A (ligand, not shown: a dimerising Fc or GST; large carriers; small tags and cut ends, Alanine mutant of m4; also called (21)R122A; 21 R122A) AAIGSCSKEYRVLLGQLQKQTDLMQDTSRLLDPYIRIQGLDVPKLREHCRERPGAFPSEETLRGLGRRGFLQTLNATLGCVLHRLADLEQRLPKAQDLERSGLNIEDLEKLQMARPNILGLANNIYCMAQLLDNSDTAEPTKAGRGASQPPTPTPASDAFQRKLEGCRFLHGYHRFMHSVGRVFSKWGESPNRSRR ) reads 0.0138

Okay, next one:
Field sPAP HepG2 B6 assay: Expt 2 EC50 (entry OSM-GST mutant T21A (ligand, not shown: a dimerising Fc or GST; large carriers; small tags and cut ends, Alanine mutant of m4; also called (14)T21A; 14 T21A) AAIGSCSKEYRVLLGQLQKQADLMQDTSRLLDPYIRIQGLDVPKLREHCRERPGAFPSEETLRGLGRRGFLQTLNATLGCVLHRLADLEQRLPKAQDLERSGLNIEDLEKLQMARPNILGLRNNIYCMAQLLDNSDTAEPTKAGRGASQPPTPTPASDAFQRKLEGCRFLHGYHRFMHSVGRVFSKWGESPNRSRR ) reads 0.0105
